pIC50: −log10 of the molar value.
Let's look at some pIC50 data for Coagulation factor XI (Homo sapiens, UniProt P03951) that I collected from the literature.

// known answers, use as guide
MOLECULE	EXPERIMENTAL_SYSTEM	pIC50
CC[C@@H](NC(=O)N1C(=O)[C@H](Cc2ccnc(N)c2)[C@H]1C(=O)N(C)c1ccn(C)n1)c1ccccc1C	Coagulation factor XI (Homo sapiens, UniProt P03951)	> 8.00
CCOC(=O)[C@@H]1[C@@H](Cc2ccnc(NC(=O)OCOC(=O)C(C)C)c2)C(=O)N1C(=O)N[C@@H](C1CCCCC1)C(F)(F)F	Coagulation factor XI (Homo sapiens, UniProt P03951)	7.00 to 8.00

Shifting focus to the molecule that follows.
Report value only: pIC50, Coagulation factor XI (Homo sapiens, UniProt P03951), O=C(O)c1ccc(NC(=O)C2(CC3CC3)CCc3cc(-c4cc(Cl)ccc4-n4cnnn4)c[n+]([O-])c32)cc1 (single isomer, unassigned)
< 6.06

###

// cross-study collection: IC50 for Coagulation factor XI (Homo sapiens, UniProt P03951)

SMILES	IC50
CCc1cccc([C@@H](CC)NC(=O)N2C(=O)[C@H](Cc3ccnc(N)c3)[C@H]2C(=O)N(C)c2ccncc2)c1	< 10 nM
Nc1cc(-c2cccnc2)nn1CC(=O)N1CC[C@@]2(C1)OC(=O)Nc1ccc(Cl)c(F)c12	389 nM

# ---- query compound ----
Enter IC50 (test system Coagulation factor XI (Homo sapiens, UniProt P03951)) for Nc1c(C(=O)N2CCC[C@@]3(C2)OC(=O)Nc2ccc(Cl)c(F)c23)cnn1-c1ccccc1OCC(F)(F)F
1080 nM

###

Collected literature values of IC50 measured for Coagulation factor XI (Homo sapiens).
Write the value in nM as a bare number.

As a guide, the following entries are already answered.
COMPOUND	UNIT_OF_MEASUREMENT	MEASURED_VALUE
O=C(Cn1c2c(c(-c3cc(Cl)ccc3Cl)cc1=O)C(=O)CC2)Nc1ccc(-c2cnc[nH]2)cc1	nM	470
O=C(Nc1cnn(Cc2cnc(N3CCC3)nc2CO)c1)c1cncc(-c2c(C(F)F)ccc(Cl)c2F)n1	nM	1110
CC(C)c1ccccc1-n1ncc(C(=O)N2CCC[C@@]3(C2)OC(=O)Nc2ccc(Cl)c(F)c23)c1N	nM	353
N#Cc1ccc(-c2cnc(C(CC3CC3)c3ccc(-c4cc(Cl)ccc4-n4cnnn4)c[n+]3[O-])[nH]2)cc1 (single isomer, unassigned)	nM	266
COC(=O)Nc1ccc(-c2cnc([C@@H](Cc3ccccc3)c3ccc(-c4cc(Cl)ccc4-c4cnco4)c[n+]3[O-])[nH]2)cc1	nM	271

Kindly review the next compound as well.
# lookup: Coagulation factor XI (Homo sapiens) IC50, key = O=C(Nc1cnn(Cc2cnc(N3CCC3)cn2)c1)c1cncc(-c2c(C(F)F)ccc(Cl)c2F)n1
1840

###

Here's a roundup of pIC50 values tested on Coagulation factor XI (Homo sapiens, UniProt P03951), taken from various published works.
pIC50: −log10 of the molar value.

Give Coagulation factor XI (Homo sapiens, UniProt P03951) pIC50 for the following molecule: CC[C@@H](NC(=O)N1C(=O)[C@H](Cc2cc(N)ncc2C)[C@H]1C(=O)N(C)c1ccccc1)C1CCCCC1
< 6.00

State recorded pIC50 with Coagulation factor XI (Homo sapiens, UniProt P03951), entry CC[C@@H](NC(=O)N1C(=O)[C@H](Cc2ccnc(N)c2)[C@H]1C(=O)N(C)c1ccn(C)n1)c1ccc(C)cc1 , no comment.
> 8.00

Please indicate recorded pIC50 of Cn1cnc(-c2ccc(NC(=O)[C@@H]3CCC4CC(c5c(-n6cnnn6)ccc(Cl)c5F)=CC(=O)N43)cc2)n1 (mixture of isomers) measured with Coagulation factor XI (Homo sapiens, UniProt P03951).
8.10

Please report the measured pIC50 for CC[C@@H](NC(=O)N1C(=O)[C@H](Cc2ccnc(N)c2)[C@H]1C(=O)N(C)c1ccn(C)n1)c1cccc(C)c1 tested on Coagulation factor XI (Homo sapiens, UniProt P03951).
7.00 to 8.00

Quote Coagulation factor XI (Homo sapiens, UniProt P03951) pIC50 for entry COCCNC(=O)c1ccc(NC(=O)[C@@H]2CCC3CC(c4c(-n5cnnn5)ccc(Cl)c4F)=CC(=O)N32)cc1F (single isomer, unassigned) .
< 7.30
